Reference source: ChEMBL document CHEMBL4359892

- System: Human immunodeficiency virus 1
- assay-text: Antiviral activity against drug resistant HIV-1 harboring reverse transcriptase Y181C mutant infected in human MT4 cells assessed as reduction in virus-induced cytopathic effect incubated for 5 days by MTT assay
- Type: functional, organism-based
- setup-conditions: Human immunodeficiency virus 1, MT4, 120 h
Lab note: compare EC50 with 5 µM, writing Yes if less and No if equal or more.

{"compound": "CCS(=O)(=O)NC(=O)c1[nH]c2ccc(Cl)cc2c1S(=O)(=O)c1cc(C)cc(C)c1", "tested-system": "Human immunodeficiency virus 1", "assigned-class": "No"}
{"compound": "Cc1cc(C)cc(S(=O)(=O)c2c(C(=O)NS(=O)(=O)c3ccccc3)[nH]c3ccc(Cl)cc23)c1", "tested-system": "Human immunodeficiency virus 1", "assigned-class": "No"}
{"compound": "Nc1ccn([C@@H]2CS[C@H](CO)O2)c(=O)n1 [LAMIVUDINE]", "tested-system": "Human immunodeficiency virus 1", "assigned-class": "Yes"}
{"compound": "Cc1cc(C)cc(S(=O)(=O)c2c(C(=O)N[C@H]3CCN(CC(N)=O)C3)[nH]c3ccc(Cl)cc23)c1", "tested-system": "Human immunodeficiency virus 1", "assigned-class": "Yes"}
{"compound": "Cc1cc(C)cc(S(=O)(=O)c2c(C(=O)NS(=O)(=O)c3ccc(F)cc3)[nH]c3ccc(Cl)cc23)c1", "tested-system": "Human immunodeficiency virus 1", "assigned-class": "No"}
{"compound": "Cc1cc(C)cc(S(=O)(=O)c2c(C(=O)NS(=O)(=O)C(F)(F)F)[nH]c3ccc(Cl)cc23)c1", "tested-system": "Human immunodeficiency virus 1", "assigned-class": "No"}
{"compound": "Cc1cc(C)cc(S(=O)(=O)c2c(C(N)=O)[nH]c3ccc(Cl)cc23)c1", "tested-system": "Human immunodeficiency virus 1", "assigned-class": "Yes"}

Say whether its EC50 is strictly beneath 5 µM. Entry: `Cc1cc(C)cc(S(=O)(=O)c2c(C(=O)NC3CN(Cc4n[nH]c(=O)n4C)C3)[nH]c3ccc(Cl)cc23)c1`
Yes

----------
- assay-text: Cytotoxicity against human MT4 cells assessed as reduction in cell viability incubated for 5 days by MTT assay
- Assay type: cell-based
observed-property: CC50 at 120 h (µM)
API: value field is a number in µM; no unit string.

Some entries whose results are on file:
{"query-smiles": "CCCS(=O)(=O)NC(=O)c1[nH]c2ccc(Cl)cc2c1S(=O)(=O)c1cc(C)cc(C)c1", "units-symbol": "µM", "CC50 at 120 h": 146}
{"query-smiles": "Cc1cc(C)cc(S(=O)(=O)c2c(C(=O)N[C@@H]3CCN(S(C)(=O)=O)C3)[nH]c3ccc(Cl)cc23)c1", "units-symbol": "µM", "CC50 at 120 h": 23.9}

Could you now consider this next molecule?
Can you look up the measured CC50 at 120 h of `Cc1cc(C)cc(S(=O)(=O)c2c(C(=O)N[C@@H]3CCN(Cc4n[nH]c(=O)n4C)C3)[nH]c3ccc(Cl)cc23)c1` for me?
22.4

----------
- tested-system: Human immunodeficiency virus type 1 reverse transcriptase (Human immunodeficiency virus 1, UniProt Q72547)
Reported IC50 values follow for various compounds
Provide the measurement as a number trailed by its unit.

Example entries and their recorded answers appear below.
{"query-smiles": "Cc1cc(C)cc(S(=O)(=O)c2c(C(N)=O)[nH]c3ccc(Cl)cc23)c1", "IC50": "0.56 µM"}
{"query-smiles": "Cc1cc(C)cc(S(=O)(=O)c2c(C(=O)N[C@H]3CCN(S(C)(=O)=O)C3)[nH]c3ccc(Cl)cc23)c1", "IC50": "0.61 µM"}

Next compound, please.
Look up IC50: `Cc1cc(C)cc(S(=O)(=O)c2c(C(=O)N[C@@H]3CCN(CC(N)=O)C3)[nH]c3ccc(Cl)cc23)c1`
1.49 µM

----------
- Test system: Human immunodeficiency virus 1
- assay-text: Antiviral activity against HIV-1 3B infected in human MT4 cells assessed as reduction in virus-induced cytopathic effect incubated for 5 days by MTT assay
- Type: functional, organism-based
- setup-conditions: Human immunodeficiency virus 1, 3B, MT4, 120 h
pEC50 by entry:
A value of pEC50 is the negative decimal logarithm of a concentration given in moles per litre.

{"query-smiles": "Cc1cc(C)cc(S(=O)(=O)c2c(C(=O)N[C@@H]3CCN(Cc4ccccc4F)C3)[nH]c3ccc(Cl)cc23)c1", "observed-property": "pEC50", "observed-measurement": 6.92}
{"query-smiles": "CCS(=O)(=O)NC(=O)c1[nH]c2ccc(Cl)cc2c1S(=O)(=O)c1cc(C)cc(C)c1", "observed-property": "pEC50", "observed-measurement": 5.53}
{"query-smiles": "Cc1cc(C)cc(S(=O)(=O)c2c(C(=O)NS(C)(=O)=O)[nH]c3ccc(Cl)cc23)c1", "observed-property": "pEC50", "observed-measurement": 8.02}
{"query-smiles": "CCOP(=O)(CCNC(=O)c1[nH]c2ccc(Cl)cc2c1S(=O)(=O)c1cc(C)cc(C)c1)OCC", "observed-property": "pEC50", "observed-measurement": 5.88}
{"query-smiles": "Cc1cc(C)cc(S(=O)(=O)c2c(C(=O)NS(=O)(=O)c3ccc(F)cc3F)[nH]c3ccc(Cl)cc23)c1", "observed-property": "pEC50", "observed-measurement": 5.49}
{"query-smiles": "CCCS(=O)(=O)NC(=O)c1[nH]c2ccc(Cl)cc2c1S(=O)(=O)c1cc(C)cc(C)c1", "observed-property": "pEC50", "observed-measurement": 5.62}

Would you mind telling me what pEC50 value was observed for `Cc1cc(C)cc(S(=O)(=O)c2c(C(=O)N[C@H]3CCN(Cc4n[nH]c(=O)n4C)C3)[nH]c3ccc(Cl)cc23)c1` ?
8.14

----------
# Lookup of reported selectivity ratio keyed by entry
- assay-text: Selectivity index, ratio of CC50 for human MT4 cells to EC50 for antiviral activity against HIV IIIB
- Type: toxicity
- setup-conditions: read-out: Ratio CC50/EC50
A bare number is all that is needed in reply.

{"query-smiles": "Cc1cc(C)cc(S(=O)(=O)c2c(C(=O)N[C@H]3CCN(CC(N)=O)C3)[nH]c3ccc(Cl)cc23)c1", "observed-property": "selectivity ratio", "observed-measurement": 2880}

Now examine the next entry.
Item `Cc1cc(C)cc(S(=O)(=O)c2c(C(=O)N[C@H]3CCN(Cc4ccccc4F)C3)[nH]c3ccc(Cl)cc23)c1` has what recorded selectivity ratio?
2580

----------
- assay-text: Cytotoxicity against human MT4 cells assessed as reduction in cell viability incubated for 5 days by MTT assay
- Assay type: cell-based
Reported CC50 at 120 h values for a set of compounds

Please report the recorded CC50 at 120 h for `Cc1cc(C)cc(S(=O)(=O)c2c(C(=O)NS(C)(=O)=O)[nH]c3ccc(Cl)cc23)c1` .
40.1 µM

Consider the compound shown here: `Cc1cc(C)cc(S(=O)(=O)c2c(C(=O)N[C@H]3CCN(Cc4ccccc4F)C3)[nH]c3ccc(Cl)cc23)c1` What is its recorded CC50 at 120 h?
215 µM

Please report the recorded CC50 at 120 h for `Cc1cc(C)cc(S(=O)(=O)c2c(C(=O)N[C@H]3CCN(Cc4ccccc4C#N)C3)[nH]c3ccc(Cl)cc23)c1` .
> 229 µM

Any idea what CC50 at 120 h was measured for `Cc1cc(C)cc(S(=O)(=O)c2c(C(=O)NS(=O)(=O)c3ccc(F)cc3)[nH]c3ccc(Cl)cc23)c1` ?
> 253 µM

What value of CC50 at 120 h has been reported for the following compound? `Cc1ccnc2c1NC(=O)c1cccnc1N2C1CC1`
> 15 µM

Using the record for `Cc1cc(C)cc(S(=O)(=O)c2c(C(=O)NC3CN(S(C)(=O)=O)C3)[nH]c3ccc(Cl)cc23)c1` , report its CC50 at 120 h.
> 252 µM

Reported CC50 at 120 h, compound `CCS(=O)(=O)NC(=O)c1[nH]c2ccc(Cl)cc2c1S(=O)(=O)c1cc(C)cc(C)c1` : ____
> 284 µM

Give its CC50 at 120 h value. Item: `Cc1cc(C)cc(S(=O)(=O)c2c(C(=O)NS(=O)(=O)c3ccc(F)cc3F)[nH]c3ccc(Cl)cc23)c1`
121 µM

----------
- assay-text: Selectivity index, ratio of CC50 for human MT4 cells to EC50 for antiviral activity against HIV IIIB
- Format: toxicity
- setup-conditions: read-out: Ratio CC50/EC50
The following compounds are listed with their measured selectivity ratio values.

So what's the measured selectivity ratio for this one? `CCS(=O)(=O)NC(=O)c1[nH]c2ccc(Cl)cc2c1S(=O)(=O)c1cc(C)cc(C)c1`
> 96

Report selectivity ratio for `Cc1cc(C)cc(S(=O)(=O)c2c(C(=O)NS(=O)(=O)c3ccc(F)cc3)[nH]c3ccc(Cl)cc23)c1` please.
> 86

Could you share which selectivity ratio value was measured for `CCOP(=O)(CCNC(=O)c1[nH]c2ccc(Cl)cc2c1S(=O)(=O)c1cc(C)cc(C)c1)OCC` ?
100
